Reference for the values: patent US20150183820A1

Target: IgG1 type humanized monoclonal antibody
Assay: pH gradient affinity chromatography, binder immobilized on streptavidin column
# value of the elution peak of antibody in pH-gradient chromatography listing for each entry below
Record the value in pH, omitting the unit from your answer.

Reported value of the elution peak of antibody in pH-gradient chromatography of OXADac-PG13 (designed binder) MGAGTPVTAPLAGTIWKVLASEGQTVAAGEVLLILEAMKMETEIRAAQAGTVRGIAVKAGDAVAVGDTLMTLAGSGSDLYDDDDKGIITSLYKKAGSAAAPFTDTYKLILNGKTLKGETTTEAVDAATAEKVFKQYANEHGVHGEWTYDPETKTFTVTE : 3.56

Reported value of the elution peak of antibody in pH-gradient chromatography of OXADac-PG19 (designed binder) MGAGTPVTAPLAGTIWKVLASEGQTVAAGEVLLILEAMKMETEIRAAQAGTVRGIAVKAGDAVAVGDTLMTLAGSGSDLYDDDDKGIITSLYKKAGSAAAPFTDTYKLILNGKTLKGETTTEAVDAATAEKVFKHYANEHGVHGHWTYDPETKTFTVTE : 4.04

Reported value of the elution peak of antibody in pH-gradient chromatography of OXADac-PG20 (designed binder) MGAGTPVTAPLAGTIWKVLASEGQTVAAGEVLLILEAMKMETEIRAAQAGTVRGIAVKAGDAVAVGDTLMTLAGSGSDLYDDDDKGIITSLYKKAGSAAAPFTDTYKLILNGKTLKGETTTEAVHAATAEKVFKHYANEHGVHGHWTYDPETKTFTVTE : 4.29

Reported value of the elution peak of antibody in pH-gradient chromatography of OXADac-PG01 (protein) MGAGTPVTAPLAGTIWKVLASEGQTVAAGEVLLILEAMKMETEIRAAQAGTVRGIAVKAGDAVAVGDTLMTLAGSGSDLYDDDDKGIITSLYKKAGSAAAPFTDTYKLILNGKTLKGETTTEAVDAATAEKVFKQYANDNGVDGEWTYDDATKTFTVTE : 3.18

Reported value of the elution peak of antibody in pH-gradient chromatography of OXADac-PG17 (designed binder) MGAGTPVTAPLAGTIWKVLASEGQTVAAGEVLLILEAMKMETEIRAAQAGTVRGIAVKAGDAVAVGDTLMTLAGSGSDLYDDDDKGIITSLYKKAGSAAAPFTDTYKLILNGKRLKGETITEAVDAATAEKVFKQYANEHGVDGEWTYDPETKTFTVTE : 3.27
